assayed-system: HLA-B*15:17
assay-comment: IEDB peptide-MHC binding, purified MHC/competitive/fluorescence; filed as Kd, often an IC50 or EC50 that approximates it; bounds were set here for any values at or beyond the usual limits of such assays
condition: source organism: Bacillus cereus ATCC 4342
pKd: −log10 of the molar value.
experimental-endpoint: pKd

Value of pKd reported for the sequence "GLFWGGIWY" is ≤ 4.70

###

assayed-system: HLA-A*32:01
assay-comment: IEDB peptide-MHC binding, purified MHC/competitive/radioactivity; filed as Kd, often an IC50 or EC50 that approximates it; bounds were set here for any values at or beyond the usual limits of such assays
condition: source organism: Mammarenavirus mopeiaense
pKd: −log10 of the molar value.
experimental-endpoint: pKd

The recorded pKd for "LCLSGEGWPY" is ≤ 4.27
